Measured values drawn from paper PMC6286779 for this set.

# Study target: HLA-A*0201 molecules (Homo sapiens, UniProt P04439, D140Y/D185E/D98H/E176V/E277Q/G131W/G231S/I119V/I121R/I166T/I218V/L300P/L318F/N151K/N90K/P208A/P217A/Q86G/Q94H/R138H/R169H/T345S)
# Experiment description: T2 binding assay
# Particulars: T2 cells 1 × 10^6 cells/ml, peptide 50 μg/ml, 3 μg/ml β2-M, serum-free RPMI 1640, 18 h, 37°C; BB7.2 staining, flow cytometry; FI > 1.5 = high affinity
Classify by measured FI (fluorescence index): Condition met if it is equal to or exceeds 2, Condition not met if it is smaller.

Sequence record	Class
ILIGETIKI [COX-2_321-329, reference compound]	Condition not met
TLLNETESL [Peptide P129]	Condition not met
ALADKHATL [Peptide P57]	Condition not met
FLSRQLESL [Peptide P109]	Condition met
YLIRRIEEL [Peptide P22]	Condition met
YQADITDLL [Peptide P173]	Condition not met
